assay.explanation: Human HepG2 cell viability assay in 384 well format
Type: toxicity, cell-based
Parameters: dose 125 nL, time 70.5 hour; concentration not given beside the values
condition.description: HepG2 cells, read-out: Inhibition
Each item that follows carries a reported cytotoxicity at 70.5 h.
Number in %, nothing else.

Guide cases for cytotoxicity at 70.5 h, answers given:
[[record]]
molecule = "COc1c(C2CCCN2Cc2cn3ccsc3n2)c(C)nn1C (stereo unspecified)"
units_symbol = "%"
val = -6.12

[[record]]
molecule = "Cc1noc(C)c1CN1CC[C@H]2OCC[C@@H](C(=O)N3CCCO3)[C@@H]2C1"
units_symbol = "%"
val = -14.6

[[record]]
molecule = "Cn1cnnc1C1CCN(C(=O)c2cc3c(s2)CCC3)CC1"
units_symbol = "%"
val = -9.61

[[record]]
molecule = "Cc1nc(C)c(CC(=O)N2CCN(CC(C)C)CC2)c(=O)[nH]1"
units_symbol = "%"
val = 2.2

[[record]]
molecule = "Cc1cc(C)c(CNC(=O)NC(C)c2ccc3c(c2)CCC3)c(=O)[nH]1 (stereo unspecified)"
units_symbol = "%"
val = 25.3

[[record]]
molecule = "Cc1ncn(CCNC(=O)Nc2ccc(OC(F)(F)F)cc2)c(=O)c1C"
units_symbol = "%"
val = -3.32

[[record]]
molecule = "CSCC(=O)N[C@H]1CC[C@H](Nc2nccc(-c3cccnc3)n2)C1"
units_symbol = "%"
val = 16.3

[[record]]
molecule = "N#Cc1ccccc1CN1CCC(CN2CCOCC2)C1 (stereo unspecified)"
units_symbol = "%"
val = -5.31


# input Please look at this molecule and report its cytotoxicity at 70.5 h: O=C(N[C@@H]1CCN(C(=O)C2CCOCC2)C[C@H]1O)c1ccccn1
# output -4.74

# input Consider the molecule Cc1cnc(NS(=O)(=O)c2ccccc2)s1 . State its measured cytotoxicity at 70.5 h.
# output -10

# input Please report the measured cytotoxicity at 70.5 h for COc1cccc(C2CC(=O)Nc3c2c(=O)n(C)c2ncnn32)c1 (stereo unspecified)
# output 16.7

# input Complete the entry with cytotoxicity at 70.5 h for COC(=O)C(NC(=O)C1CC1)c1cc(F)ccc1F (stereo unspecified)
# output -0.233
